Please respond with reported inhibition for every item in the list.
Target: Gag-Pol polyprotein (Human immunodeficiency virus type 1 group M subtype B (isolate HXB2))
Experiment: HIV-1 RT RNase H inhibitor potency, dose response, biochemical, probe assessment (AID 652)
Settings: HIV-1 RT RNase H enzymatic assay, inhibition, at 50 µM, stronger effect = higher value
Numbers only, in %.

Examples with answers:
>>> df
                                   compound  measured_result
0  CCOC(=O)c1c(N)sc2c1CCC1C(=O)N(C3CCCCC3)C(=O)C21 (stereo not drawn)             96.1
1  COC(=O)c1ccc2c(c1)N(Cc1nc(-c3cccc(C)c3)oc1C)C(=O)C1CCCN21 (stereo not drawn)             78.1

Give measured inhibition for every item shown.
1. CCCCCn1c(=O)c(C(=O)NCc2ccncc2)c(O)c2ccccc21
2. COc1ccc(OC)c(S(=O)(=O)Nc2ccc(O)c(Sc3ncn[nH]3)c2)c1
3. O=C(CCCn1c(SCC(=O)c2ccc(O)c(O)c2)nc2ccccc2c1=O)NCC1CCCO1 (stereo not drawn)
4. N#Cc1c(-c2cccnc2)c2c([nH]c1=S)CCCC2

1. 96
2. 89.7
3. 99.4
4. 77.9

* * *

Please respond with reported inhibition for every item in the list.
Target: Gag-Pol polyprotein (Human immunodeficiency virus type 1 group M subtype B (isolate HXB2)) (UniProt P04585)
Assay: HIV-1 RT RNase H inhibitor potency, dose response, biochemical, probe assessment (AID 652)
Settings: HIV-1 RT RNase H enzymatic assay, inhibition, at 50 µM, stronger effect = higher value
Give bare numbers, in %.

Examples with answers:
>>> df
                                   compound  scale_unit  measured_result
0  COc1ccc2[nH]c(=O)c(CN(C3CCCCC3)C(c3nnnn3Cc3ccco3)C(C)C)cc2c1 (centres undefined)           %             88.5
1  CC(=O)N(Cc1cc(=O)[nH]c2ccccc12)c1cccc(C)c1           %             89.9
2  O=c1/c(=C\c2cccn2-c2ccccc2)sc2nc3ccccc3n12           %               92

Shifting focus to the compound that follows.
Entry `CCOC(=O)CSc1nc2cc(C(=O)NCc3ccco3)ccc2c(=O)n1-c1ccc(F)cc1` : reported inhibition = ?
91.8

* * *

Target: Gag-Pol polyprotein (Human immunodeficiency virus type 1 group M subtype B (isolate HXB2))
Assay: HIV-1 RT RNase H inhibitor potency, dose response, biochemical, probe assessment (AID 652)
Settings: HIV-1 RT RNase H enzymatic assay, inhibition, at 50 µM, stronger effect = higher value
Entry flag: Satisfied if inhibition reaches 90%; Not satisfied if it does not.

Known results for compounds:
>>> df
                                   compound     class_name
0  O=C(CSc1nnnn1-c1ccccc1)Nc1nsc(-c2ccc(Cl)cc2)n1  Not satisfied
1  O=C(CSc1nc2sc3c(c2c(=O)n1-c1ccccc1)CCCC3)NCc1ccco1  Not satisfied
2               Fc1ccccc1CSc1nc2ncccc2[nH]1  Not satisfied
3  COc1ccccc1N=c1oc2c(OC)cccc2cc1C(=O)NCc1ccco1      Satisfied
4  CCOc1ccc(S(=O)(=O)Nc2cc(Sc3ncn[nH]3)c3oc(=O)sc3c2)cc1      Satisfied

Determine whether this compound has inhibition no lower than 90%: `C=CCSc1nc2c(c(=O)[nH]c(=O)n2C)n1C(C)C`
Not satisfied

Determine whether this compound has inhibition no lower than 90%: `N#Cc1nc(-c2ccc(OCc3ccc(Cl)cc3)cc2)oc1NCc1cccnc1`
Satisfied

Determine whether this compound has inhibition no lower than 90%: COc1ccc(Cn2nnnc2C(c2cccnc2)N2CCN(c3ccc(O)cc3)CC2)cc1 (configuration not stated)
Not satisfied

Determine whether this compound has inhibition no lower than 90%: `C/C=C/CSc1nc2c(c(=O)[nH]c(=O)n2C)n1Cc1ccc(C)cc1`
Satisfied

Determine whether this compound has inhibition no lower than 90%: CCc1ccccc1N1CSC2=C(C#N)C(c3ccccc3F)CC(=O)N2C1 (configuration not stated)
Satisfied

Determine whether this compound has inhibition no lower than 90%: `c1cncc(-c2nn3c(Cn4cnc5ccccc54)nnc3s2)c1`
Not satisfied

meta.source: PubChem BioAssay AID652
